Quick reference for PK Vdiv among some compounds
# procedure summary: Animal PK study in mouse via i.v., p.o. and s.c. administration
# Assay type: in vivo
# stated conditions: i.v.
measured endpoint: PK Vdiv (L/kg)

{"columns": ["compound", "measured endpoint", "data value"],
 "data": [
  ["C[C@H](NC(=O)Nc1ccc(S(=O)(=O)Cc2ccc(CC(C)(C)N(C)C)cc2)cc1)c1cccc(Cl)c1Cl", "PK Vdiv", 1.39],
  ["Cl.O=C(NCc1cccc(Cl)c1Cl)Nc1ccc(S(=O)(=O)Cc2ccc3c(c2)CNC3)cc1", "PK Vdiv", 2.18],
  ["COc1ccc([C@H](C)NC(=O)Nc2ccc(S(=O)(=O)Cc3ccc4c(c3)CCN(C(C)=O)C4)cc2)c(Cl)c1Cl", "PK Vdiv", 2.86],
  ["C[C@H](NC(=O)Nc1ccc(S(=O)(=O)Cc2ccc3c(c2)CCN(C)C3)cc1)c1cccc(Cl)c1Cl", "PK Vdiv", 2.83],
  ["CC(NC(=O)Nc1ccc(S(=O)(=O)Cc2ccc3c(c2)CN(CC2CC2)C3)cc1)c1ccccc1 (stereo not shown)", "PK Vdiv", 3.08],
  ["CC(NC(=O)Nc1ccc(S(=O)(=O)Cc2ccc3c(c2)CN(C)C3)cc1)c1ccccc1 (stereo not shown)", "PK Vdiv", 6.33],
  ["CCOC(=O)N1CCc2cc(NS(=O)(=O)c3ccc(NC(=O)N[C@@H](C)c4cccc(Cl)c4Cl)cc3)ccc2C1", "PK Vdiv", 4.32],
  ["C[C@H](NC(=O)Nc1ccc(S(=O)(=O)Nc2ccc(CC(C)(C)N)cc2)cc1)c1ccc(-c2cnccn2)c(Cl)c1Cl", "PK Vdiv", 0.27],
  ["CC(C)(N)Cc1ccc(NS(=O)(=O)c2ccc(NC(=O)NCc3ccccc3)cc2)cc1.Cl", "PK Vdiv", 4.31],
  ["O=C(NCc1ccccc1Cl)Nc1ccc(S(=O)(=O)Cc2ccc3c(c2)CCNC3)cc1", "PK Vdiv", 11.7]
]}

* * *

# experimental target: GHSR-1a (HEK293/GHSR1a cell line) (Homo sapiens, UniProt Q92847)
# Construct: expressed in transfected cells; host or cells: HEK293/GHSR1a cell line
# Sequence (Q92847 whole entry): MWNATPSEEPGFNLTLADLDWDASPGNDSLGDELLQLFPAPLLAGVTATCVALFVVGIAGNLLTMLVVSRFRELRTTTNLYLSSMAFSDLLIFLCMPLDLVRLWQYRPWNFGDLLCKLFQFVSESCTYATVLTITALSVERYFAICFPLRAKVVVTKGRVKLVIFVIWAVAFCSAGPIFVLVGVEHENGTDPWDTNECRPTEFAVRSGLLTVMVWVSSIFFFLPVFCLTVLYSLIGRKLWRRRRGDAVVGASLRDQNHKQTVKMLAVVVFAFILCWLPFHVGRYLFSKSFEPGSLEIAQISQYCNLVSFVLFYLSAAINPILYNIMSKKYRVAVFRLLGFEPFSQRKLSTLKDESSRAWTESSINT
# procedure summary: Ghrelin antagonist potency (IC50) with calcium FLIPR assay, ghrelin 10 nM
# Type: cell-based
# stated conditions: HEK293/GHSR1a, ghrelin 10 nM, read-out: Activity IC50 (ghrelin antagonist potency)
pIC50: −log10 of the molar value.
In this section we review reported pIC50 values for a set of compounds.

{"columns": ["compound", "pIC50"],
 "data": [
  ["CC(NC(=O)Nc1ccc(S(=O)(=O)Cc2ccc(CO)cc2)cc1)c1cccc(Cl)c1Cl (stereo not drawn) [H1430]", 5.61],
  ["C[C@@H](NC(=O)Nc1ccc(S(=O)(=O)Cc2ccc(C3CCCN3)cc2)cc1)c1ccccc1 (stereo partly drawn) [H1332]", 7.14],
  ["COc1cc(S(=O)(=O)Cc2cc(F)c3c(c2)CCNC3)ccc1NC(=O)NC(C)c1cccc(Cl)c1Cl (stereo not drawn) [H1424]", 7.81],
  ["CC(NC(=O)Nc1ccc(S(=O)(=O)Cc2ccc3c(c2)CN(CC#N)C3)cc1)c1ccccc1 (stereo not drawn) [H1339]", 6.51],
  ["CC(NC(=O)Nc1ccc(S(=O)(=O)Cc2cc(F)c3c(c2)CCN(C)C3)cc1)c1cccc(Cl)c1Cl (stereo not drawn) [H1378]", 7.72],
  ["CC(NC(=O)Nc1ccc(S(=O)(=O)Cc2ccc3c(c2)CNC3)cc1)c1ccccc1F (stereo not drawn) [H1272]", 7.63]
]}
